B1: PWWP2B (parent)
chain: TIRLRPRQVLCEKCKSTLSPPEAS

Variants of: B1
Assay: protein stability index of a GFP-peptide fusion (GPS, HEK-293T) (PSI 1-6); higher = more stable;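 also: lentivirally expressed fusions sorted by FACS into six bins by GFP to DsRed ratio, PSI derived from sequencing read proportions per bin multiplied by bin number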
Conditions: c terminus: a fixed tail appended

sequence_chain: TIRLRPRQVLCEKCKSTFSPPEAS [L18F]
protein stability index: 2.89
//
sequence_chain: TIRLRPRQVLCGKCKSTLSPPEAS [E12G]
protein stability index: 2.59
//
sequence_chain: TIRLRPRQVLCEKCKSTLSPPKAS [E22K]
protein stability index: 2.62
//
sequence_chain: TIMLRPRQVLCEKCKSTLSPPEAS [R3M]
protein stability index: 3.14
//
sequence_chain: TIRLRPRQVLCEKCKSTLSPPEQS [A23Q]
protein stability index: 3.94
//
sequence_chain: FIRLRPRQVLCEKCKSTLSPPEAS [T1F]
protein stability index: 1.72
//
sequence_chain: TIRLRPRQVLCEKCKSTLSPPSAS [E22S]
protein stability index: 2.81
//
sequence_chain: TIKLRPRQVLCEKCKSTLSPPEAS [R3K]
protein stability index: 3.99
//
sequence_chain: TIRLRPRQVLCEKCVSTLSPPEAS [K15V]
protein stability index: 2.71
//
sequence_chain: TIRLRPRQVLCEKCKSTISPPEAS [L18I]
protein stability index: 3.03
//
sequence_chain: TIRLRPRQLLCEKCKSTLSPPEAS [V9L]
protein stability index: 2.37
//
sequence_chain: TIRSRPRQVLCEKCKSTLSPPEAS [L4S]
protein stability index: 3.6
//
sequence_chain: TIRLRPRQVLCEQCKSTLSPPEAS [K13Q]
protein stability index: 2.83
//
sequence_chain: TIRLRPRQVLCEKCKSTLSPPHAS [E22H]
protein stability index: 2.34
//
sequence_chain: TIRLRPRQVLCEKCKSTLSPQEAS [P21Q]
protein stability index: 2.98
//
sequence_chain: TIRLRPRQVLCEKCKSTLSPPEAC [S24C]
protein stability index: 2.99
//
sequence_chain: TIRLRPRQVLCEKCKSTLSPPEAG [S24G]
protein stability index: 2.6
//
sequence_chain: TIRLRPRQVLCEKCKSTLSPPEVS [A23V]
protein stability index: 2.91
//
sequence_chain: TIRLRPLQVLCEKCKSTLSPPEAS [R7L]
protein stability index: 2.62
//
sequence_chain: TIRLRPRQVLCEKCKSTLSNPEAS [P20N]
protein stability index: 2.63
//
sequence_chain: TIRLRPRQVLCEKCKSTLSPPAAS [E22A]
protein stability index: 2.66
//
sequence_chain: TIRLYPRQVLCEKCKSTLSPPEAS [R5Y]
protein stability index: 2.73
//
sequence_chain: TIRLRPRQVLCEKCKSTLSPPTAS [E22T]
protein stability index: 3.15
//
sequence_chain: TIRLRPRQVLCEKCQSTLSPPEAS [K15Q]
protein stability index: 2.72
//
sequence_chain: TIRLRPRQVLCEKCKSTLSPSEAS [P21S]
protein stability index: 3.5
//
sequence_chain: TIRLKPRQVLCEKCKSTLSPPEAS [R5K]
protein stability index: 2.96
//
sequence_chain: TIRLRPRQVLCEKCKSTLSPDEAS [P21D]
protein stability index: 3.89
//
sequence_chain: TIRLRPRQVLCEKCKSPLSPPEAS [T17P]
protein stability index: 3.44
//
sequence_chain: TIRLRPRQVLCEKCKSTLSPPEDS [A23D]
protein stability index: 3.54
//
sequence_chain: TIRLRPRQVLCEKCKSTLSPAEAS [P21A]
protein stability index: 3.29
//
sequence_chain: TERLRPRQVLCEKCKSTLSPPEAS [I2E]
protein stability index: 3.67
//
sequence_chain: TIRLRPRQVLIEKCKSTLSPPEAS [C11I]
protein stability index: 3.33
//
sequence_chain: HIRLRPRQVLCEKCKSTLSPPEAS [T1H]
protein stability index: 2.8
//
sequence_chain: TPRLRPRQVLCEKCKSTLSPPEAS [I2P]
protein stability index: 4.11
//
sequence_chain: TIRLRPRQVLCDKCKSTLSPPEAS [E12D]
protein stability index: 3.28
//
sequence_chain: TKRLRPRQVLCEKCKSTLSPPEAS [I2K]
protein stability index: 2.98
//
sequence_chain: TIRLRPRQVLCEKCKSTLEPPEAS [S19E]
protein stability index: 3.32
//
sequence_chain: TIRLRPRQGLCEKCKSTLSPPEAS [V9G]
protein stability index: 2.64
//
sequence_chain: TIRLRPRQVLCEKCKSTLQPPEAS [S19Q]
protein stability index: 3.01
//
sequence_chain: TIRTRPRQVLCEKCKSTLSPPEAS [L4T]
protein stability index: 3.85
//
sequence_chain: TIRLRPRQVLCEKCKSTLSIPEAS [P20I]
protein stability index: 2.44
//
sequence_chain: TIRLRPRQVLCEKCNSTLSPPEAS [K15N]
protein stability index: 3.26
//
sequence_chain: TIRLRPRQVLCEKCKSTLSPPVAS [E22V]
protein stability index: 3.18
//
sequence_chain: TIRLRPRQVLCEKCKSTLKPPEAS [S19K]
protein stability index: 2.56
//
sequence_chain: TIRLRPRQVLCEKCKSVLSPPEAS [T17V]
protein stability index: 2.48
//
sequence_chain: TIYLRPRQVLCEKCKSTLSPPEAS [R3Y]
protein stability index: 2.82
//
sequence_chain: TIRLRPRQVLCEKCKSTLSQPEAS [P20Q]
protein stability index: 3.03
//
sequence_chain: TIWLRPRQVLCEKCKSTLSPPEAS [R3W]
protein stability index: 2.98
//
sequence_chain: TITLRPRQVLCEKCKSTLSPPEAS [R3T]
protein stability index: 3.27
//
sequence_chain: TIRLRPRQVSCEKCKSTLSPPEAS [L10S]
protein stability index: 3.13
//
sequence_chain: TIRLRPRQVLCEKCKSTLSPPEAL [S24L]
protein stability index: 2.66
//
sequence_chain: TIRLRPRQVLCEKCKSTLSEPEAS [P20E]
protein stability index: 3.22
//
sequence_chain: TIRLRPRQVLCEKCKSTLSPPQAS [E22Q]
protein stability index: 2.58
//
sequence_chain: TIRLRPRQVLCEKCKTTLSPPEAS [S16T]
protein stability index: 2.92
//
sequence_chain: TIRLRPRQVLCELCKSTLSPPEAS [K13L]
protein stability index: 1.81
//
sequence_chain: TIRLRPRQVLCEKCKSTLSPPYAS [E22Y]
protein stability index: 2.31
//
sequence_chain: TIRLRPRQVLEEKCKSTLSPPEAS [C11E]
protein stability index: 4.15
//
sequence_chain: TIRLRPRWVLCEKCKSTLSPPEAS [Q8W]
protein stability index: 2.19
//
sequence_chain: TIRLRPRQVLCEKCKSTLSPPEAH [S24H]
protein stability index: 2.63
//
sequence_chain: DIRLRPRQVLCEKCKSTLSPPEAS [T1D]
protein stability index: 3.76
//
sequence_chain: TIRLRPRQVLCEKCKSTLSLPEAS [P20L]
protein stability index: 2.41
//
sequence_chain: TIRLRPRQVLCEKCISTLSPPEAS [K15I]
protein stability index: 2.51
//
sequence_chain: TIRLRPRQVLCEKCKSTLSYPEAS [P20Y]
protein stability index: 2.42
//
sequence_chain: TLRLRPRQVLCEKCKSTLSPPEAS [I2L]
protein stability index: 3.35
//
sequence_chain: TIRLRPRQVLCEKWKSTLSPPEAS [C14W]
protein stability index: 2.58
//
sequence_chain: TIRLRPRQVLCEKCKSTLGPPEAS [S19G]
protein stability index: 2.29
//
sequence_chain: TIRLRCRQVLCEKCKSTLSPPEAS [P6C]
protein stability index: 2.46
//
sequence_chain: TIRLRPRQVTCEKCKSTLSPPEAS [L10T]
protein stability index: 3.43
//
sequence_chain: TQRLRPRQVLCEKCKSTLSPPEAS [I2Q]
protein stability index: 3.63
//
sequence_chain: TIRLRPRQVLCEKFKSTLSPPEAS [C14F]
protein stability index: 3.19
//
sequence_chain: TIRLRPRQVLCEKCKSLLSPPEAS [T17L]
protein stability index: 3
//
sequence_chain: TIRLRPRQVLCEKCKSELSPPEAS [T17E]
protein stability index: 3.97
//
sequence_chain: TIRLRPRQVLCEKCKSKLSPPEAS [T17K]
protein stability index: 2.62
//
sequence_chain: TIRLRPGQVLCEKCKSTLSPPEAS [R7G]
protein stability index: 3.12
//
sequence_chain: TIRLWPRQVLCEKCKSTLSPPEAS [R5W]
protein stability index: 2.9
//
sequence_chain: TIRVRPRQVLCEKCKSTLSPPEAS [L4V]
protein stability index: 3.22
//
sequence_chain: TIRLRDRQVLCEKCKSTLSPPEAS [P6D]
protein stability index: 3.61
//
sequence_chain: TIRLRPRQVLCEKCKSTLSPPMAS [E22M]
protein stability index: 2.4
//
sequence_chain: TIRLRPRQVLKEKCKSTLSPPEAS [C11K]
protein stability index: 3.58
